# test protocol: chemical genetic growth profiling, strain panel (AID 1159580);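 further: tested at 20 µM; growth read once vehicle control cultures reached saturation at 30 °C; 1 = growth at the plate median or of vehicle wells; lower values mean less growth of the strain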
# conditions: S. cerevisiae deletion strains, growth OD, locus YJL134W, strain LCB3, hits give low values
The whole screen tested about 5,500 compounds, of which about 2,000 (36%) were called active. Another 18% or so got no clear call; they are omitted. The list shows a part of the results.
measured endpoint: normalized growth
Give bare numbers.

Solved cases below.
Returns the measured normalized growth for the input compound. Input: Cc1cc(OC(=O)c2c(C)cc(OC(=O)c3c(C)cc(O)cc3O)cc2O)cc(O)c1C(=O)O 1.02

normalized growth for COc1ccc2c(c1)CCC1C2CC[C@@]2(C)C1CC[C@@H]2O (stereo partly specified) ? 0.989

Look up normalized growth for this compound: CC(C)N(CCC(C(N)=O)(c1ccccc1)c1ccccn1)C(C)C (stereo unspecified) 0.998

Field: normalized growth. Fill in for each record below.
1. CC(CC(O)C1OC1(C)C)[C@@H]1CCC2(C)C3=CCC4C(C)(C)C(=O)CCC4(C)C3CC[C@@]12C (stereo partly specified)
2. NC(=NCCC[C@H](N)C(=O)O)N[N+](=O)[O-]

[1.04, 1]

Batch request: normalized growth per item, same order as input.
1. Cc1cc(OC(=O)c2c(C)cc(O)cc2O)cc(O)c1C(=O)O
2. C[C@]12CCC3c4ccc(OS(=O)(=O)O)cc4CCC3C1CC[C@H]2O (stereo partly specified)

1. 1.02
2. 0.993

# map each compound to its normalized growth
1. CCCCCc1c2c(cc(O)c1C(=O)O)OC(=O)c1c(cc(OC)cc1C(=O)CCCC)O2
2. CC(=O)OC1CN2CCC1CC2 (stereo unspecified)

1: 0.977; 2: 0.987

Dear colleague, could you send me normalized growth for each of the items below? Thanks.
1. CCOC(=O)c1c(C)cc(OC)cc1O
2. CCC(=O)c1c(O)cc(O)cc1O

1: 0.988; 2: 0.999

====

# test protocol: chemical genetic growth profiling, strain panel (AID 1159580);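 further: tested at 20 µM; growth read once vehicle control cultures reached saturation at 30 °C; 1 = growth at the plate median or of vehicle wells; lower values mean less growth of the strain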
# conditions: S. cerevisiae deletion strains, growth OD, locus YPL256C, strain CLN2, hits give low values
Hit rate of the full screen: of about 5,500 compounds, about 2,000 (36%) were called active. Another 18% or so got no clear call; they are omitted. This is one part of the list.
Assignment: determine reported normalized growth for the given compounds.

Observe how each entry below is paired with its result.
Quick check: normalized growth of CN1C[C@H](C(=O)N[C@]2(C)C[C@@]3(O)C4CCCN4C(=O)[C@H](Cc4ccccc4)N3C2=O)C=C2c3cccc4[nH]cc(c34)C[C@H]21 (some centres undefined) ? 0.981 (inactive)

Need normalized growth of CC(C)c1c(O)ccc2c1CCC1[C@@](C)(C=O)CCC[C@]21C (some centres undefined) , thanks. 0.814 (active)

Fill in the blank: the reported normalized growth of CC(=O)[C@@]1(O)CCC2C3C[C@H](C)C4=CC(=O)C=CC4(C)[C@@]3(F)[C@@H](O)C[C@@]21C (some centres undefined) is ____. 0.981 (inactive)

Could you tell me which normalized growth is on file for CCCCCC(=O)Cc1cc(O)cc(O)c1C(=O)Oc1cc(CC(=O)CCCCC)c(C(=O)O)c(OC)c1 ? 0.989 (inactive)

Record normalized growth for all entries; do not skip any.
1. CC(C)c1c(O)ccc2c1CCC1[C@@](C)(CO)CCC[C@]21C (some centres undefined)
2. CC(=O)Oc1ccc2c(c1C(C)C)CCC1C(C)(C)CCC[C@]21C (some centres undefined)
3. COC(=O)[C@@]1(C)CCC[C@]2(C)c3ccc(O)c(C(C)C)c3CCC12 (some centres undefined)
4. CC(C)(C)NCC(O)c1cc(O)cc(O)c1 (centres undefined)

1. 1.08 (inactive)
2. 0.966 (inactive)
3. 0.682 (active)
4. 0.959 (inactive)

Which measured normalized growth value corresponds to Cc1nnc2n1N=C(c1ccc(CC(C)C)cc1)C(C)S2 (centres undefined) ? 1.02 (inactive)

====

Please respond with reported normalized growth for every item in the list.
# test protocol: chemical genetic growth profiling, strain panel (AID 1159580);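 further: tested at 20 µM; growth read once vehicle control cultures reached saturation at 30 °C; 1 = growth at the plate median or of vehicle wells; lower values mean less growth of the strain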
# conditions: S. cerevisiae deletion strains, growth OD, locus YDR392W, strain spt3, hits give low values
Hit rate of the full screen: of about 5,500 compounds, about 2,000 (36%) were called active. About 18% were inconclusive and are not listed. Some of the results follow.
Give bare numbers.

Some solved entries appear below for comparison.
Data request, read-out normalized growth, for C[C@@H]1CC[C@@]2(NC1)O[C@H]1C[C@H]3C4CC=C5C[C@@H](O)CC[C@]5(C)C4CC[C@]3(C)C1[C@@H]2C (stereo partly drawn) 0.0901

Record request: normalized growth value, item CCCCCC(=O)Cc1cc(O)cc(O)c1C(=O)Oc1cc(CC(=O)CCCCC)c(C(=O)O)c(OC)c1 0.404

Quick one: normalized growth for O=C(OC1Cc2c(O)cc(O)cc2OC1c1cc(=O)c(O)c2c(O)c(O)cc(C3Oc4cc(O)cc(O)c4CC3O)c2c1)c1cc(O)c(O)c(O)c1 (stereo not drawn) ? 0.939

Give its normalized growth value. Item: CC(C)(C)NCC(O)c1cc(O)cc(O)c1 (stereo not drawn) 0.883

Requested field: normalized growth. Item: OC1CC2CCCC(C1)N2Cc1ccccc1 (stereo not drawn) 0.901

For each listed entry, give its normalized growth.
1. CC1CCC2(OC1)OC1CC3C4CC[C@H]5C[C@@H](O)CC[C@]5(C)C4CC(=O)[C@]3(C)C1C2C (stereo partly drawn)
2. O=c1c(O)c(-c2ccc(O)c(O)c2)oc2c(O)c(O)cc(O)c12
3. CC1(C)C2CC(=O)[C@]3(C)C(CC[C@@]4(C)[C@H](c5ccoc5)OC(=O)C5OC543)[C@@]2(C)[C@@H](O)C[C@H]1O (stereo partly drawn)
4. CC(C)(C)NCC(O)c1cc(Cl)c(N)c(Cl)c1 (stereo not drawn)
5. CCCCCc1c2c(cc(O)c1C(=O)O)OC(=O)c1c(cc(OC)cc1C(=O)CCCC)O2
6. CCCCC1C(=O)N(c2ccccc2)N(c2ccc(O)cc2)C1=O (stereo not drawn)
7. COc1ccc(Cl)cc1C(=O)NCCc1ccc(S(=O)(=O)NC(=O)NC2CCCCC2)cc1

[0.866, 1.04, 1.01, 0.876, 0.988, 1.01, 0.918]

====

So I've got a bunch of compounds here, and I need their normalized growth values.
# test protocol: chemical genetic growth profiling, strain panel (AID 1159580);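 further: tested at 20 µM; growth read once vehicle control cultures reached saturation at 30 °C; 1 = growth at the plate median or of vehicle wells; lower values mean less growth of the strain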
# conditions: S. cerevisiae deletion strains, growth OD, locus YDR137W, strain rgp1, hits give low values
The campaign covered roughly 5,500 compounds. About 2,000 (36%) were called active. Not shown: some 18% with an inconclusive outcome. The list shows a part of the results.
Answers are plain numbers.

// below: answered compounds
Could you tell me which normalized growth is on file for O=C(Cc1cccs1)NC1C(=O)N2C(C(=O)[O-])=C(C[n+]3ccccc3)CSC12 (stereo not given) ? 0.988

Endpoint output: normalized growth of CO[C@@]1(NC(=O)C(C(=O)O)c2ccc(O)cc2)C(=O)N2C(C(=O)O)=C(CSc3nnnn3C)CO[C@@H]21 (stereo not given in full) . Value? 0.98

# query: normalized growth of entry Oc1ccc2c(c1)OCC1(O)Cc3cc(O)c(O)cc3C21 (stereo not given) 1.15

Which measured normalized growth value corresponds to Oc1cc2c(cc1O)C1c3ccc(O)c(O)c3OCC1(O)C2 (stereo not given) ? 1.05

Look up normalized growth: O=C(OC1Cc2c(O)cc(O)cc2OC1c1cc(=O)c(O)c2c(O)c(O)cc(C3Oc4cc(O)cc(O)c4CC3O)c2c1)c1cc(O)c(O)c(O)c1 (stereo not given) 0.844

What does the data say about its normalized growth? Entry: O=c1c(O)c(-c2ccc(O)c(O)c2)oc2c(O)c(O)cc(O)c12 1.02

I'd like to know its normalized growth. The compound in question is CC(C)c1c(O)c(-c2cc3c(c(C(C)C)c2O)CCC2C(C)(C)CCC[C@]32C)cc2c1CCC1C(C)(C)CCC[C@]21C (stereo not given in full) 0.982

What value of normalized growth has been reported for the following compound? N#Cc1nn(-c2c(Cl)cc(C(F)(F)F)cc2Cl)c(N)c1S(=O)C(F)(F)F (stereo not given) 0.576

Dear colleague, I am looking for the recorded normalized growth of the following compound: COc1ccc(Cl)cc1C(=O)NCCc1ccc(S(=O)(=O)NC(=O)NC2CCCCC2)cc1 0.973

Which normalized growth value is on record for CC(=O)Oc1ccc2c(c1OC(C)=O)OCC1(O)Cc3c(cc(OC(C)=O)c(OC(C)=O)c3OC(C)=O)C21 (stereo not given) ? 1

Below are some compounds; for each one, tell me its normalized growth.
1. CN(C)c1ccc2nc3ccc(=[N+](C)C)cc-3sc2c1
2. CC(=O)OC(C)C[N+](C)(C)C (stereo not given)
3. NC(=NCCC[C@H](N)C(=O)O)N[N+](=O)[O-]
4. CCCCCCCCCCCC1=C(O)C(=O)C=C(O)C1=O
5. NC(=O)CN1CCCC1=O
6. O=C(O[C@@H]1Cc2c(O)cc(O)cc2O[C@@H]1c1cc(O)c(=O)c2c(O)c(O)cc([C@H]3Oc4cc(O)cc(O)c4C[C@H]3OC(=O)c3cc(O)c(O)c(O)c3)c2c1)c1cc(O)c(O)c(O)c1
7. CC(=O)OCC1=C(C(=O)O)N2C(=O)[C@@H](NC(=O)Cc3cccs3)[C@H]2SC1
8. C[C@H]1O[C@H](OC2[C@@H](O)[C@@H](O)C(O)[C@H](O)[C@H]2O)[C@@H](N)C[C@@H]1N=C(N)C(=O)O (stereo not given in full)

1. 1
2. 0.99
3. 1.05
4. 0.81
5. 0.98
6. 0.485
7. 0.962
8. 0.937

Required: normalized growth, one value per compound below.
1. Cc1cc(C2CCCCC2)n(O)c(=O)c1
2. CNC(C)C(O)c1ccccc1 (stereo not given)

[0.0918, 1.03]
